B1: LINE1-full (parent)
chain: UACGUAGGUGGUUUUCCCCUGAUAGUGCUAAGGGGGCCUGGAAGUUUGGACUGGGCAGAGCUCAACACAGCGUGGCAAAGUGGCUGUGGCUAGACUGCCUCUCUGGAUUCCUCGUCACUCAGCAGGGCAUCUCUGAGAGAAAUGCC

variants of: B1; test: self-cleavage, relative activity (ratio to wild type); higher = more cleavage; in vitro, sequencing; the parent is a self-cleaving ribozyme
Label yes when self-cleavage is at or above 0.6; otherwise label no.

Challenge: Determine whether measured self-cleavage meets or exceeds 0.6 for U5C G8A
Response given: no

Challenge: Determine whether measured self-cleavage meets or exceeds 0.6 for U39A A140G
Response given: yes

Challenge: Determine whether measured self-cleavage meets or exceeds 0.6 for A77U U96A
Response given: no

Challenge: Determine whether measured self-cleavage meets or exceeds 0.6 for U23C A43U
Response given: yes

Challenge: Determine whether measured self-cleavage meets or exceeds 0.6 for A117C
Response given: yes

Challenge: Determine whether measured self-cleavage meets or exceeds 0.6 for U47C A57U
Response given: no

Challenge: Determine whether measured self-cleavage meets or exceeds 0.6 for U39A G135U
Response given: yes

Challenge: Determine whether measured self-cleavage meets or exceeds 0.6 for U9C U46A
Response given: yes

Challenge: Determine whether measured self-cleavage meets or exceeds 0.6 for U47C A79G
Response given: yes

Challenge: Determine whether measured self-cleavage meets or exceeds 0.6 for U39A U45A
Response given: yes

Challenge: Determine whether measured self-cleavage meets or exceeds 0.6 for A64U A129G
Response given: yes

Challenge: Determine whether measured self-cleavage meets or exceeds 0.6 for G54A G83A
Response given: no

Challenge: Determine whether measured self-cleavage meets or exceeds 0.6 for A31U U109A
Response given: yes

Challenge: Determine whether measured self-cleavage meets or exceeds 0.6 for U23C A30U
Response given: yes

Challenge: Determine whether measured self-cleavage meets or exceeds 0.6 for A65G G144U
Response given: no

Challenge: Determine whether measured self-cleavage meets or exceeds 0.6 for U45C A69U
Response given: no

Challenge: Determine whether measured self-cleavage meets or exceeds 0.6 for C38G U39G
Response given: yes

Challenge: Determine whether measured self-cleavage meets or exceeds 0.6 for U9A U39A
Response given: yes

Challenge: Determine whether measured self-cleavage meets or exceeds 0.6 for U73G U96C
Response given: no

Challenge: Determine whether measured self-cleavage meets or exceeds 0.6 for C61U A94G
Response given: no

Challenge: Determine whether measured self-cleavage meets or exceeds 0.6 for G70A A92G
Response given: no

Challenge: Determine whether measured self-cleavage meets or exceeds 0.6 for U52G G144A
Response given: yes

Challenge: Determine whether measured self-cleavage meets or exceeds 0.6 for A57U G125A
Response given: no

Challenge: Determine whether measured self-cleavage meets or exceeds 0.6 for C63U U130C
Response given: no

Challenge: Determine whether measured self-cleavage meets or exceeds 0.6 for A107G U130C
Response given: yes

Challenge: Determine whether measured self-cleavage meets or exceeds 0.6 for U15G A69G
Response given: yes

Challenge: Determine whether measured self-cleavage meets or exceeds 0.6 for A50G G127A
Response given: yes

Challenge: Determine whether measured self-cleavage meets or exceeds 0.6 for C101U A136G
Response given: yes

Challenge: Determine whether measured self-cleavage meets or exceeds 0.6 for U13C C17U
Response given: yes

Challenge: Determine whether measured self-cleavage meets or exceeds 0.6 for U1A A59U
Response given: yes

Challenge: Determine whether measured self-cleavage meets or exceeds 0.6 for A65U U104C
Response given: no

Challenge: Determine whether measured self-cleavage meets or exceeds 0.6 for A31U A59G
Response given: no

Challenge: Determine whether measured self-cleavage meets or exceeds 0.6 for C84U U100C
Response given: no

Challenge: Determine whether measured self-cleavage meets or exceeds 0.6 for U100A A129U
Response given: yes

Challenge: Determine whether measured self-cleavage meets or exceeds 0.6 for G4U C110A
Response given: yes

Challenge: Determine whether measured self-cleavage meets or exceeds 0.6 for G27C A117G
Response given: yes

Challenge: Determine whether measured self-cleavage meets or exceeds 0.6 for G21A G135A
Response given: yes

Challenge: Determine whether measured self-cleavage meets or exceeds 0.6 for A30C G35A
Response given: yes

Challenge: Determine whether measured self-cleavage meets or exceeds 0.6 for A77U C90U
Response given: no

Challenge: Determine whether measured self-cleavage meets or exceeds 0.6 for A50G A138G
Response given: yes

Challenge: Determine whether measured self-cleavage meets or exceeds 0.6 for A42G A92U
Response given: yes

Challenge: Determine whether measured self-cleavage meets or exceeds 0.6 for U13C A64C
Response given: no

Challenge: Determine whether measured self-cleavage meets or exceeds 0.6 for U5C C111U
Response given: yes

Challenge: Determine whether measured self-cleavage meets or exceeds 0.6 for U62C A69G
Response given: no

Challenge: Determine whether measured self-cleavage meets or exceeds 0.6 for U29G G70A
Response given: no
